Molecular target: T1, cyno TIGIT on cells (cynomolgus macaque)
T1 construct: whole, on cells; also called Expi293 cyno TIGIT over-expressing cells
Assay: FACS titration of AF647-labelled mAb on cyno effector memory CD8+ T cells, Cyno Donor 1; isotype gMFI subtracted
endpoint: Kd
Record the result as number plus unit.

Inquiry: Which Kd reading was recorded for the binder BM26 hIgG4 (antibody, V domains shown, benchmark anti-human TIGIT antibody, human IgG4 with S241P; also called BM26-H4; WO2016/028656A1 Clone 3106 as hIgG4) VH: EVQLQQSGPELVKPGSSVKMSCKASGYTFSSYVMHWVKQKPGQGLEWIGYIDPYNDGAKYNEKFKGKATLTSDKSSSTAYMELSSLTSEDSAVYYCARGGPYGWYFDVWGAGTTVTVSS VL: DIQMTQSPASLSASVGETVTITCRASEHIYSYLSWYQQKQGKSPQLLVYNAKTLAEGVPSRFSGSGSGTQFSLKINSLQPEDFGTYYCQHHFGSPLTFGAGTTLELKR ?
Reply text: 4.6 nM
